system: Saccharomyces cerevisiae; test: protein stability index of tFT-peptide fusion (C-terminal peptide) (PSI (0-1 scale)); higher = more stable (slower turnover); settings: genetic background: wild type; temperature: 30 C;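 also: PSI is a weighted mean of sequencing reads over stability bins, variants kept only with over 10 reads, mCherry proximal and sfGFP distal, peptide attached via GGGS linker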
List of protein stability index values.

seq_string | protein stability index
VLCFTSAYHRLV | 0.425
CLRDTLTCLFFF | 0.595
LECLSRGWSIYC | 0.541
VREMMGFWFVPL | 0.691
AQDECVMVWYVG | 0.651
KKKKKEQKTNQT | 0.697
LPCSTLPWAPLT | 0.565
PRHSPPPPLPAP | 0.699
LPVLPPLSPSPF | 0.665
DYRKGDVETPFV | 0.677

// provenance: the supplement of paper PMC10724198
